Listed here are compounds together with their documented relative viability.
# System: HCC-15
# measurement protocol: relative viability (nuclei count vs DMSO), 5 days (fraction); higher = more cells survive
# study conditions: first compound 1.265 µM
// response body must contain only the number

Cc1sc2c(c1C)C(c1ccc(Cl)cc1)=N[C@@H](CC(=O)OC(C)(C)C)c1nnc(C)n1-2 [JQ1] + CC(=O)Nc1cccc(-n2c(=O)n(C3CC3)c(=O)c3c(Nc4ccc(I)cc4F)n(C)c(=O)c(C)c32)c1 [Trametinib] (partner 0.02 µM) : 0.31

Now, please, on to the next compound.
Lookup: State the recorded relative viability for this entry: Cc1sc2c(c1C)C(c1ccc(Cl)cc1)=N[C@@H](CC(=O)OC(C)(C)C)c1nnc(C)n1-2 [JQ1] + N=C(N)NC(=N)NCCc1ccccc1 [Phenformin] (partner 250 µM)
Found: 0.189
